- Test system: retinal degeneration mouse model
- experimental.details: Electroretinogram (ERG) in blue LED-induced retinal degeneration mouse model
- Type: in vivo, BALB/c mice
- run.conditions: single intravitreal injection 1 hour after LED exposure; compound 24 nM, Eylea 25 mg/kg
readout.type: Wavelength enhanced multiple compared to a normal saline-treated group, a-wave
Just the number, please.

1) CNC(=O)CC1C(=O)NCCN1Cc1oc(-c2ccccc2-c2cccc3c2CN(C)C3=O)cc1C (stereo not drawn)
1.25
2) CNC(=O)C1(Cc2ccc(F)cc2)CCN(Cc2ccc(-c3ccccc3-c3cccc4c3CN(C)C4=O)o2)CC1
2.17

Continue with the next molecule.
Exam item: Name the recorded Wavelength enhanced multiple compared to a normal saline-treated group, a-wave of the molecule listed here: CN1Cc2c(cccc2-c2ccccc2-c2ccc(COCN3CCC(F)(F)CC3)o2)C1=O
Marked response: 1.45

Every entry's value here was drawn from patent US20250289808A1.
